Several reports have described pKi for 5-hydroxytryptamine receptor 5A (Homo sapiens); a selection of those results is presented here.
pKi: −log10 of the molar value.

| substanceSmiles | experimentalTarget | endpointResult |
| --- | --- | --- |
| NC(N)=NC(=O)N1CCc2c(F)ccc(-c3ncc(Cl)cc3Cl)c2C1 | 5-hydroxytryptamine receptor 5A (Homo sapiens) | 8.72 |

Notebook entry, 5-hydroxytryptamine receptor 5A (Homo sapiens) assay: pKi of COc1cccc(Cl)c1Cn1cc(-c2ccc(Cl)cc2)nc1N = ?
> 6.22

Notebook entry, 5-hydroxytryptamine receptor 5A (Homo sapiens) assay: pKi of NC1=Nc2ccccc2CN1Cc1ccccc1O = ?
> 5.00

Hi! What's the reported pKi for N#CCN1CCC(n2c3ccccc3c3ccc(C(=O)N=C(N)N)cc32)CC1 on 5-hydroxytryptamine receptor 5A (Homo sapiens)?
≥ 7.30

For the record NC(N)=NC(=O)N1Cc2c(-c3c(F)cccc3F)ccc(F)c2C2(CC2)C1 , what value of pKi is listed for 5-hydroxytryptamine receptor 5A (Homo sapiens)?
9.12

Hello, I am looking for reported pKi with 5-hydroxytryptamine receptor 5A (Homo sapiens) for NC(N)=NC(=O)c1ccc2cccc(-c3ccccc3Cl)c2c1 . Could you help?
8.52 to 9.52

Observed pKi on 5-hydroxytryptamine receptor 5A (Homo sapiens) for COc1cccc(OC)c1CNC(=N)Nc1nc(C)c(C(=O)N(C)C)s1 , please.
> 7.30

Requested read-out pKi, target or system 5-hydroxytryptamine receptor 5A (Homo sapiens), entry NC(N)=NC(=O)c1ccc2cccc(-c3ccc(C(F)(F)F)cn3)c2c1
7.52 to 8.52

Notebook: pull reported pKi for 5-hydroxytryptamine receptor 5A (Homo sapiens), entry NC(N)=NC(=O)c1ccc2cccc(-c3cccc(Cl)c3Cl)c2c1
8.52 to 9.52

// map COc1ccccc1Cn1cc(-c2ccc(NS(=O)(=O)c3ccccc3)cc2)nc1N to recorded pKi (system: 5-hydroxytryptamine receptor 5A (Homo sapiens))
> 6.22

# returns recorded pKi (system: 5-hydroxytryptamine receptor 5A (Homo sapiens)) for COc1cccc(OC(C)C)c1Cc1cc2ccccc2nc1N
> 6.52

Could you share what pKi was measured for COc1ccc(F)c(-c2cccc3ccc(C(=O)N=C(N)N)cc23)c1 , tested on 5-hydroxytryptamine receptor 5A (Homo sapiens)?
7.52 to 8.52

Lab note: need pKi for NC(N)=NC(=O)c1ccc2cccc(-c3c(F)cc(F)cc3F)c2c1 on 5-hydroxytryptamine receptor 5A (Homo sapiens), anyone have it?
8.52 to 9.52

Find pKi (5-hydroxytryptamine receptor 5A (Homo sapiens)) for the entry NC(N)=NC(=O)c1ccc2cccc(-c3ccncc3)c2c1
7.52 to 8.52

Query for 5-hydroxytryptamine receptor 5A (Homo sapiens): what pKi does the record show for NC(N)=NC(=O)c1ccc2c(c1)C(c1cccc(Cl)c1)=CCC2 ?
7.52 to 8.52

Request - read-out pKi | tested on 5-hydroxytryptamine receptor 5A (Homo sapiens) | compound COc1cccc(Cl)c1CNC(=N)Nc1nc(-c2ccc(F)cc2)cs1
6.30 to 7.30
